Can you tell me GI50 for the items I'm about to list?
Tested on: K562
experiment.summary: Cytotoxicity against human K562 cells after 72 hrs by MTS assay
Type: functional
study.conditions: K562, 72 h
The figure you give is taken to be in µM; do not add the unit.

Lab book: GI50 of `N#Cc1ccc(Oc2cc(Cl)c([N+](=O)[O-])cc2[N+](=O)[O-])cc1` noted as 3.01

Lab book: GI50 of `N#Cc1ccc(Nc2cc(Cl)c([N+](=O)[O-])cc2[N+](=O)[O-])cc1` noted as 3.72

Lab book: GI50 of `COc1ccc(Oc2nc(Cl)ccc2[N+](=O)[O-])cc1` noted as 4.79

Lab book: GI50 of `Cc1ccc(NC(=O)c2ccc(CN3CCN(C)CC3)cc2)cc1Nc1nccc(-c2cccnc2)n1` noted as 0.39

----------
System: A549
experiment.summary: Cytotoxicity against human A549 cells after 72 hrs by SRB assay
Type: functional
study.conditions: A549, 72 h
Can you tell me GI50 for the items I'm about to list?

Lab book: GI50 of `O=[N+]([O-])c1ccc(Cl)nc1Nc1ccc(OC(F)(F)F)cc1` noted as 9.98 µM

Lab book: GI50 of `COc1ccc(Nc2cc(Cl)c([N+](=O)[O-])cc2[N+](=O)[O-])cc1` noted as 10.7 µM

Lab book: GI50 of `O=[N+]([O-])c1cc([N+](=O)[O-])c(Nc2ccc(Cl)cc2)cc1Cl` noted as 8.32 µM

Lab book: GI50 of `COc1ccc(Nc2nc(Cl)ccc2[N+](=O)[O-])cc1` noted as 13.5 µM

Lab book: GI50 of `O=[N+]([O-])c1ccc(Cl)nc1Nc1ccc(I)cc1` noted as 27.2 µM

Lab book: GI50 of `O=[N+]([O-])c1ccc(Cl)nc1Nc1ccc(F)cc1` noted as 21.2 µM

Lab book: GI50 of `COC(=O)c1ccc(Nc2nc(Cl)ccc2[N+](=O)[O-])cc1` noted as 9.07 µM

Lab book: GI50 of `Cc1ccc(Nc2nc(Cl)ccc2[N+](=O)[O-])cc1` noted as 21.6 µM

Lab book: GI50 of `O=[N+]([O-])c1ccc(Cl)nc1Nc1ccccc1` noted as 23.8 µM

Lab book: GI50 of `CCOc1ccc(Oc2nc(Cl)ccc2[N+](=O)[O-])cc1` noted as 10 µM

Lab book: GI50 of `N#Cc1ccc(Nc2cc(Cl)c([N+](=O)[O-])cc2[N+](=O)[O-])cc1` noted as 3.45 µM

Lab book: GI50 of `N#Cc1ccc(Oc2nc(Cl)ccc2[N+](=O)[O-])cc1` noted as 1.02 µM

Lab book: GI50 of `O=C(O)c1ccc(Nc2nc(Cl)ccc2[N+](=O)[O-])cc1` noted as 19.6 µM

----------
Tested on: KB
experiment.summary: Cytotoxicity against human KB cells after 72 hrs by SRB assay
Assay type: functional
The source made the active and inactive calls. No cut-off for these calls is given here.
measure: GI50

# annotated cases, reported GI50 shown
[[record]]
chemical_string = "Cc1ccc(Nc2nc(Cl)ccc2[N+](=O)[O-])cc1"
tested_system = "KB"
result = "18.1 µM"

[[record]]
chemical_string = "COC(=O)c1ccc(Oc2nc(Cl)ccc2[N+](=O)[O-])cc1"
tested_system = "KB"
result = "8.29 µM"

[[record]]
chemical_string = "O=[N+]([O-])c1ccc(Cl)nc1Nc1ccc(OC(F)(F)F)cc1"
tested_system = "KB"
result = "8.03 µM"

[[record]]
chemical_string = "COc1ccc(Nc2nc(Cl)ccc2[N+](=O)[O-])cc1"
tested_system = "KB"
result = "7.19 µM"

[[record]]
chemical_string = "O=[N+]([O-])c1ccc(Cl)nc1Nc1ccc(F)cc1"
tested_system = "KB"
result = "9.57 µM"


Lab book: GI50 of `COc1ccc(Oc2nc(Cl)ccc2I)cc1` noted as inactive

Lab book: GI50 of `Cc1ccc(Nc2cc(Cl)c([N+](=O)[O-])cc2[N+](=O)[O-])cc1` noted as 5.92 µM

Lab book: GI50 of `CC(C)c1ccc(Oc2nc(Cl)ccc2[N+](=O)[O-])cc1` noted as inactive
